Assay: in vivo
Condition Details: female, NSG, mouse, plasma, iv, 0.5 mg/kg
*1 amine or outer side, *2 acyl side, *3 side chain or, on linkers, in order; H or OH if unused. Where a SMILES comes first, the peptide text is derived from it. Bridges are numbered along the chain shown (N, C = ends). Roman numbers before positions name the chains, in order. [ ]: non-standard residue; d: D form. Actinocin(9to1) = Cc1c2oc3c(C)ccc(C(=O)[*:1])c3nc-2c(C(=O)[*:2])c(N)c1=O; NMeV = CN[C@H](C(=O)O)C(C)C; Sar = CNCC(=O)O
Measurement Kind: AUC(0-inf) (ng·h/mL)
Give the value in ng·h/mL but do not write ng·h/mL after it.

Item Cc1c2oc3c(C)ccc(C(=O)N[C@@H]4C(=O)N[C@H](C(C)C)C(=O)N5CCC[C@H]5C(=O)N(C)CC(=O)N(C)[C@@H](C(C)C)C(=O)O[C@@H]4C)c3nc-2c(C(=O)N[C@@H]2C(=O)N[C@H](C(C)C)C(=O)N3CCC[C@H]3C(=O)N(C)CC(=O)N(C)[C@@H](C(C)C)C(=O)O[C@@H]2C)c(N)c1=O [actinomycin D, Actinomycin D] (I: T[dV]P[Sar][NMeV] / II: T[dV]P[Sar][NMeV]; ester I:1-I:C, II:1-II:C; linker I:N-II:N via Actinocin(9to1)) has what recorded AUC(0-inf)?
128

* * *

Assay: in vitro
Condition Details: mouse, plasma
*1 amine or outer side, *2 acyl side, *3 side chain or, on linkers, in order; H or OH if unused. Where a SMILES comes first, the peptide text is derived from it. Bridges are numbered along the chain shown (N, C = ends). Roman numbers before positions name the chains, in order. [ ]: non-standard residue; d: D form. Actinocin(9to1) = Cc1c2oc3c(C)ccc(C(=O)[*:1])c3nc-2c(C(=O)[*:2])c(N)c1=O; NMeV = CN[C@H](C(=O)O)C(C)C; Sar = CNCC(=O)O
Measurement Kind: fraction unbound at 12 h, 30 ng/mL
# output: bare number, no unit

Item Cc1c2oc3c(C)ccc(C(=O)N[C@@H]4C(=O)N[C@H](C(C)C)C(=O)N5CCC[C@H]5C(=O)N(C)CC(=O)N(C)[C@@H](C(C)C)C(=O)O[C@@H]4C)c3nc-2c(C(=O)N[C@@H]2C(=O)N[C@H](C(C)C)C(=O)N3CCC[C@H]3C(=O)N(C)CC(=O)N(C)[C@@H](C(C)C)C(=O)O[C@@H]2C)c(N)c1=O [actinomycin D, Actinomycin D] (I: T[dV]P[Sar][NMeV] / II: T[dV]P[Sar][NMeV]; ester I:1-I:C, II:1-II:C; linker I:N-II:N via Actinocin(9to1)) has what recorded fraction unbound at 12 h, 30 ng/mL?
0.231

* * *

Assay: in vivo
Condition Details: female, NSG (NOD.Cg-Prkdc^scid Il2rg^tm1Wjl/SzJ), mouse, plasma, iv, 0.5 mg/kg, plasma actinomycin D concentration, original analysis, incurred sample reanalysis table; mouse # 6, sampling 6 h
*1 amine or outer side, *2 acyl side, *3 side chain or, on linkers, in order; H or OH if unused. Where a SMILES comes first, the peptide text is derived from it. Bridges are numbered along the chain shown (N, C = ends). Roman numbers before positions name the chains, in order. [ ]: non-standard residue; d: D form. Actinocin(9to1) = Cc1c2oc3c(C)ccc(C(=O)[*:1])c3nc-2c(C(=O)[*:2])c(N)c1=O; NMeV = CN[C@H](C(=O)O)C(C)C; Sar = CNCC(=O)O
Measurement Kind: level at 6 h (ng/mL)
Give the value in ng/mL but do not write ng/mL after it.

Item Cc1c2oc3c(C)ccc(C(=O)N[C@@H]4C(=O)N[C@H](C(C)C)C(=O)N5CCC[C@H]5C(=O)N(C)CC(=O)N(C)[C@@H](C(C)C)C(=O)O[C@@H]4C)c3nc-2c(C(=O)N[C@@H]2C(=O)N[C@H](C(C)C)C(=O)N3CCC[C@H]3C(=O)N(C)CC(=O)N(C)[C@@H](C(C)C)C(=O)O[C@@H]2C)c(N)c1=O [actinomycin D, Actinomycin D] (I: T[dV]P[Sar][NMeV] / II: T[dV]P[Sar][NMeV]; ester I:1-I:C, II:1-II:C; linker I:N-II:N via Actinocin(9to1)) has what recorded level at 6 h?
1.31

* * *

Assay: in vivo
Condition Details: female, NSG (NOD.Cg-Prkdc^scid Il2rg^tm1Wjl/SzJ), mouse, plasma, iv, 0.5 mg/kg, plasma actinomycin D concentration, original analysis, incurred sample reanalysis table; mouse # 6, sampling 22 h
*1 amine or outer side, *2 acyl side, *3 side chain or, on linkers, in order; H or OH if unused. Where a SMILES comes first, the peptide text is derived from it. Bridges are numbered along the chain shown (N, C = ends). Roman numbers before positions name the chains, in order. [ ]: non-standard residue; d: D form. Actinocin(9to1) = Cc1c2oc3c(C)ccc(C(=O)[*:1])c3nc-2c(C(=O)[*:2])c(N)c1=O; NMeV = CN[C@H](C(=O)O)C(C)C; Sar = CNCC(=O)O
Measurement Kind: level at 22 h (ng/mL)
Give the value in ng/mL but do not write ng/mL after it.

Item Cc1c2oc3c(C)ccc(C(=O)N[C@@H]4C(=O)N[C@H](C(C)C)C(=O)N5CCC[C@H]5C(=O)N(C)CC(=O)N(C)[C@@H](C(C)C)C(=O)O[C@@H]4C)c3nc-2c(C(=O)N[C@@H]2C(=O)N[C@H](C(C)C)C(=O)N3CCC[C@H]3C(=O)N(C)CC(=O)N(C)[C@@H](C(C)C)C(=O)O[C@@H]2C)c(N)c1=O [actinomycin D, Actinomycin D] (I: T[dV]P[Sar][NMeV] / II: T[dV]P[Sar][NMeV]; ester I:1-I:C, II:1-II:C; linker I:N-II:N via Actinocin(9to1)) has what recorded level at 22 h?
1.36

* * *

Assay: in vivo
Condition Details: female, NSG (NOD.Cg-Prkdc^scid Il2rg^tm1Wjl/SzJ), mouse, plasma, iv, 0.5 mg/kg, plasma actinomycin D concentration, original analysis, incurred sample reanalysis table; mouse # 7, sampling 6 h
*1 amine or outer side, *2 acyl side, *3 side chain or, on linkers, in order; H or OH if unused. Where a SMILES comes first, the peptide text is derived from it. Bridges are numbered along the chain shown (N, C = ends). Roman numbers before positions name the chains, in order. [ ]: non-standard residue; d: D form. Actinocin(9to1) = Cc1c2oc3c(C)ccc(C(=O)[*:1])c3nc-2c(C(=O)[*:2])c(N)c1=O; NMeV = CN[C@H](C(=O)O)C(C)C; Sar = CNCC(=O)O
Measurement Kind: level at 6 h
The reply must contain the numeric value and, after it, the unit.

Item Cc1c2oc3c(C)ccc(C(=O)N[C@@H]4C(=O)N[C@H](C(C)C)C(=O)N5CCC[C@H]5C(=O)N(C)CC(=O)N(C)[C@@H](C(C)C)C(=O)O[C@@H]4C)c3nc-2c(C(=O)N[C@@H]2C(=O)N[C@H](C(C)C)C(=O)N3CCC[C@H]3C(=O)N(C)CC(=O)N(C)[C@@H](C(C)C)C(=O)O[C@@H]2C)c(N)c1=O [actinomycin D, Actinomycin D] (I: T[dV]P[Sar][NMeV] / II: T[dV]P[Sar][NMeV]; ester I:1-I:C, II:1-II:C; linker I:N-II:N via Actinocin(9to1)) has what recorded level at 6 h?
5.51 ng/mL

* * *

Assay: Plasma and brain tissue concentrations after intravenous bolus injection (CNS disposition)
Format: in vivo, mice
Condition Details: female, NSG (NOD.Cg-Prkdc^scid Il2rg^tm1Wjl/SzJ), mouse, brain, iv; mice, 0.5 mg/kg i.v., after 2 h; read-out: brain tissue concentration
*1 amine or outer side, *2 acyl side, *3 side chain or, on linkers, in order; H or OH if unused. Where a SMILES comes first, the peptide text is derived from it. Bridges are numbered along the chain shown (N, C = ends). Roman numbers before positions name the chains, in order. [ ]: non-standard residue; d: D form. Actinocin(9to1) = Cc1c2oc3c(C)ccc(C(=O)[*:1])c3nc-2c(C(=O)[*:2])c(N)c1=O; NMeV = CN[C@H](C(=O)O)C(C)C; Sar = CNCC(=O)O
Measurement Kind: level at time molar at 2 h

Item Cc1c2oc3c(C)ccc(C(=O)N[C@@H]4C(=O)N[C@H](C(C)C)C(=O)N5CCC[C@H]5C(=O)N(C)CC(=O)N(C)[C@@H](C(C)C)C(=O)O[C@@H]4C)c3nc-2c(C(=O)N[C@@H]2C(=O)N[C@H](C(C)C)C(=O)N3CCC[C@H]3C(=O)N(C)CC(=O)N(C)[C@@H](C(C)C)C(=O)O[C@@H]2C)c(N)c1=O [actinomycin D, Actinomycin D] (I: T[dV]P[Sar][NMeV] / II: T[dV]P[Sar][NMeV]; ester I:1-I:C, II:1-II:C; linker I:N-II:N via Actinocin(9to1)) has what recorded level at time molar at 2 h?
~3 nM
